testSystem: T-cell receptor (TCR)-CD3 interaction, human (TCR alpha chain TRAV4)
measurementDescription: potency of TCR-CD3 interaction inhibitors, dose response, biochemical, fluorescence, TAMRA-labeled TCR probe (AID 686957)
assayContext: TCR-CD3 binding
Activity calls are given as the source filed them. How the calls were made is not given here.
experimentalEndpoint: IC50

// below: answered compounds
smilesRepr	IC50
O=C(NNC(=O)C1CCN(S(=O)(=O)c2ccccc2)CC1)c1ccccc1O	> 94.1 µM (inactive)
CN(CCC#N)C(=O)COC(=O)c1c2c(nc3ccccc13)/C(=C\c1ccco1)CC2	> 94.1 µM (inactive)
O=c1c2c(-c3ccc(Cl)cc3)csc2ncn1/N=C/c1cccc([N+](=O)[O-])c1O	> 94.1 µM (inactive)
COC(=O)c1cc(O)c(O)c(O)c1	> 94.3 µM (inactive)
Oc1ccc(/C=N/N=C/c2ccc(O)c(O)c2)cc1O	2.24 µM
O=C(NNC(=S)NC(=O)c1cccs1)c1ccc(O)cc1	> 94 µM (inactive)
C=CCn1c(O)c(N=NC(=O)CNC(=O)/C=C/c2ccco2)c2ccccc21	> 94.1 µM (inactive)
COC(=O)C1CCN(C(=O)c2cc(-c3ccco3)nc3ccccc23)CC1	> 94.1 µM (inactive)
COc1ccc(-c2cnnn2-c2ccc(NC(=O)c3ccc(S(=O)(=O)N4CCCCC4)cc3)cc2)cc1OC	inactive
CN=c1scc(C)n1/N=C/c1ccc(O)c(O)c1O	inactive

Reported IC50, compound Cc1ccc(C(=O)NNC(=O)c2cc3ccccc3cc2O)cc1 : ____ > 94.1 µM (inactive)

Reported IC50, compound COc1ccccc1N(C)S(=O)(=O)c1ccc(C(=O)NNC(=O)c2ccccc2O)cc1 : ____ > 94.1 µM (inactive)

Reported IC50, compound Cc1cc(/C=N/n2c(COc3ccccc3C)nc3ccccc3c2=O)c(O)c([N+](=O)[O-])c1 : ____ > 94.1 µM (inactive)

----------
testSystem: T-cell receptor (TCR)-CD3 interaction, human (TCR alpha chain TRAV4)
measurementDescription: potency of TCR-CD3 interaction inhibitors, dose response, biochemical, fluorescence, TAMRA-labeled TCR probe (AID 686957)
assayContext: TCR-CD3 binding
Active and inactive are the calls of the source. No rule for the calls is given here.
Would you mind answering with one of these outcomes? y for active, n for inactive

Lab log entry: O=C1COc2ccc(C(=O)COC(=O)/C=C/c3ccc(Br)o3)cc2N1 — outcome as called in the assay? n

Lab log entry: Cc1onc(-c2ccccc2)c1C(=O)NN=Cc1cc(Cl)cc(Cl)c1O — outcome as called in the assay? n

Lab log entry: O=C(NNC(=O)C1CCN(S(=O)(=O)c2ccccc2C(F)(F)F)CC1)c1ccccc1O — outcome as called in the assay? n

Lab log entry: O=C(N/N=C/c1ccoc1)c1cc(O)cc(O)c1 — outcome as called in the assay? n

Lab log entry: COC(=O)CC1(C(=O)OC)Nc2cc(Cl)c(Cl)cc2S(=O)(=O)N1O (configuration not stated) — outcome as called in the assay? n

Lab log entry: CCC1=NN(C(=O)c2cccc([N+](=O)[O-])c2)C(O)(c2ccc(C)cc2)C1 (configuration not stated) — outcome as called in the assay? n

Lab log entry: O=C(N/N=C/c1cc([N+](=O)[O-])cc([N+](=O)[O-])c1O)/C(=C\c1cccs1)NC(=O)c1ccccc1 — outcome as called in the assay? n

Lab log entry: C=CCNC(=S)NNC(=O)c1cccn(Cc2cccc(Cl)c2)c1=O — outcome as called in the assay? n

Lab log entry: Cc1ccccc1NC(=O)NNC(=O)c1ccc2ccccc2c1O — outcome as called in the assay? n

Lab log entry: O=C(N/N=C/c1cccc([N+](=O)[O-])c1O)c1cccs1 — outcome as called in the assay? n

Lab log entry: c1coc(-c2ccc3nncn3c2)c1 — outcome as called in the assay? n

Lab log entry: COc1ccc(NC(=O)NNC(=O)c2cc3ccccc3cc2O)cc1 — outcome as called in the assay? n

Lab log entry: COc1cc(/C=N/NC(=O)COc2ccc(Cl)cc2)ccc1OS(=O)(=O)c1ccc(C)cc1 — outcome as called in the assay? n

Lab log entry: CCc1ccccc1NC(=O)NNC(=O)c1ccc2ccccc2c1O — outcome as called in the assay? n

Lab log entry: Cc1cc2oc3ccc(NCCCn4ccnc4)cc3c(=O)c2cc1C — outcome as called in the assay? n

Lab log entry: O=C(NNC(=O)c1ccccc1O)c1ccc(-c2ccc([N+](=O)[O-])cc2)o1 — outcome as called in the assay? n

Lab log entry: O=C1/C(=C/c2ccco2)SC(=S)N1c1cccnc1 — outcome as called in the assay? n

Lab log entry: CC/C(=N\NC(=O)c1ccccc1O)c1c(O)n(Cc2ccccc2)c(=O)[nH]c1=O — outcome as called in the assay? n

Lab log entry: Nc1ncnc2oc(-c3ccco3)c(-c3ccco3)c12 — outcome as called in the assay? n

Lab log entry: CC(=O)NC(CC(=O)NNC(=O)c1cc2ccccc2cc1O)c1ccccc1 (configuration not stated) — outcome as called in the assay? n

Lab log entry: Cc1c(CC(=O)N2CCN(C(=O)C3COc4ccccc4O3)CC2)c(=O)oc2c(O)c(O)ccc12 (configuration not stated) — outcome as called in the assay? y

Lab log entry: COc1ccc(C(=O)C=CNNC(=O)c2ccc(Cl)cc2)cc1 — outcome as called in the assay? n

----------
testSystem: T-cell receptor (TCR)-CD3 interaction, human (TCR alpha chain TRAV4)
measurementDescription: potency of TCR-CD3 interaction inhibitors, dose response, biochemical, fluorescence, TAMRA-labeled TCR probe (AID 686957)
assayContext: TCR-CD3 binding
Activity calls are given as the source filed them. The rule behind the calls is not given here.
Would you mind answering with one of these outcomes? active, inactive

Lab log entry: CCOc1ccc(NC(=O)NNC(=O)c2ccc3ccccc3c2O)cc1 — outcome as called in the assay? inactive

Lab log entry: O=c1c(O)cccc2cc(O)c(O)c(O)c12 — outcome as called in the assay? active

Lab log entry: O=C(NNC(=O)c1cc2ccccc2cc1O)Nc1ccc(F)cc1F — outcome as called in the assay? inactive

Lab log entry: O=C(CSc1nc2ccccc2c(=O)n1-c1ccc(F)c(Cl)c1)Nc1cccc(S(=O)(=O)N2CCOCC2)c1 — outcome as called in the assay? inactive

Lab log entry: NNC(=O)c1nc[nH]c1C(=O)Nc1ccccn1 — outcome as called in the assay? inactive

Lab log entry: O=C(N/N=C/c1cc(Br)cc(Br)c1O)c1cccc(N2CCCC2=O)c1 — outcome as called in the assay? inactive

Lab log entry: C/C(=N\NC(=O)c1nnn(-c2nonc2N)c1-c1ccccc1)c1ccccc1O — outcome as called in the assay? inactive

Lab log entry: Cc1nc(S/C(=C/c2ccc(-c3ccc(C(=O)O)cc3)o2)C(=O)O)n[nH]1 — outcome as called in the assay? inactive

Lab log entry: O=C(CP(=O)(c1ccccc1)c1ccccc1)N/N=C/c1cc(Br)cc(Br)c1O — outcome as called in the assay? inactive

Lab log entry: CCc1ccc(NC(=O)NNC(=O)c2ccc3ccccc3c2O)cc1 — outcome as called in the assay? inactive

Lab log entry: COc1ccccc1C(=O)NNC(=O)c1ccc(NC(=O)CC(C)C)cc1 — outcome as called in the assay? inactive

----------
testSystem: T-cell receptor (TCR)-CD3 interaction, human (TCR alpha chain TRAV4)
measurementDescription: potency of TCR-CD3 interaction inhibitors, dose response, biochemical, fluorescence, TAMRA-labeled TCR probe (AID 686957)
assayContext: TCR-CD3 binding
The source made the active and inactive calls. No rule for the calls is given here.
Would you mind answering with one of these outcomes? t for active, f for inactive

Lab log entry: O=C(N/N=C/c1cc([N+](=O)[O-])ccc1O)/C(=C\c1cccs1)NC(=O)c1ccccc1 — outcome as called in the assay? f

Lab log entry: O=C(N/N=C/c1ccc(O)c(O)c1)N/N=C/c1ccc(O)c(O)c1 — outcome as called in the assay? t

Lab log entry: COc1ccc(/C=C2\SC(=O)N(CC(=O)NNC(=O)c3ccccc3O)C2=O)cc1 — outcome as called in the assay? f

Lab log entry: N#C/C(=C\c1ccc(O)c(O)c1)C(=O)Nc1cccc2ncccc12 — outcome as called in the assay? t

Lab log entry: O=C(N/N=C/c1cn(Cc2cccc(F)c2)c2ccccc12)c1cc(O)cc(O)c1 — outcome as called in the assay? f

Lab log entry: O=C(CNC(=O)c1ccccc1F)NNC(=O)c1ccccc1O — outcome as called in the assay? f

Lab log entry: O=C(N/N=C/c1sc(=O)[nH]c1-[n+]1ccc2ccccc2c1)c1ccccc1[O-] — outcome as called in the assay? f

Lab log entry: COc1ccc(/C=N/NC(=O)c2cc(O)c(O)c(O)c2)cc1Cn1cc([N+](=O)[O-])cn1 — outcome as called in the assay? t

Lab log entry: Cc1nc2ccccc2n1CC(=O)c1ccc(O)c(O)c1 — outcome as called in the assay? f

Lab log entry: CNC(=S)N/N=C/c1cc(Br)cc(Br)c1O — outcome as called in the assay? f

Lab log entry: Cc1nc(S/C(=C\c2ccc(-c3ccc(C(=O)O)c(Cl)c3)o2)C(=O)O)n[nH]1 — outcome as called in the assay? f

Lab log entry: Cc1cc(C)c2c(N)c(C(=O)NN)sc2n1 — outcome as called in the assay? f

Lab log entry: O=c1cc(-c2ccc(O)c(O)c2)oc2ccc3ccccc3c12 — outcome as called in the assay? f

Lab log entry: CC(C)(C)c1ccc(C(=O)NCC(=O)NNC(=O)c2ccccc2O)cc1 — outcome as called in the assay? f

Lab log entry: O=c1c2ccccc2nc(COc2ccccc2)n1/N=C/c1cc([N+](=O)[O-])ccc1O — outcome as called in the assay? f

Lab log entry: Cc1nc(S/C(=C/c2ccc(OCc3ccc(C(=O)O)cc3)cc2)C(=O)O)n[nH]1 — outcome as called in the assay? f

Lab log entry: O=C1Nc2ccccc2/C1=N\N=C\c1ccc(O)c(O)c1 — outcome as called in the assay? f

Lab log entry: COc1ccccc1C(=O)NNC(=O)c1ccc2ccccc2c1O — outcome as called in the assay? f

Lab log entry: Cn1c(SCC(=O)NNC(=O)c2ccccc2O)nnc1-c1ccccc1 — outcome as called in the assay? f

Lab log entry: NS(=O)(=O)c1ccc(NC(=O)c2cccc(N3C(=O)c4ccccc4C3=O)c2)cc1 — outcome as called in the assay? f

Data credit: PubChem BioAssay AID686957
